Attribution: patent US20140378451A1

# MEASUREMENT_TARGET: hCB2R (Homo sapiens)
# Construct: unnamed tag of the plasmid
# Sequence (P34972 whole entry): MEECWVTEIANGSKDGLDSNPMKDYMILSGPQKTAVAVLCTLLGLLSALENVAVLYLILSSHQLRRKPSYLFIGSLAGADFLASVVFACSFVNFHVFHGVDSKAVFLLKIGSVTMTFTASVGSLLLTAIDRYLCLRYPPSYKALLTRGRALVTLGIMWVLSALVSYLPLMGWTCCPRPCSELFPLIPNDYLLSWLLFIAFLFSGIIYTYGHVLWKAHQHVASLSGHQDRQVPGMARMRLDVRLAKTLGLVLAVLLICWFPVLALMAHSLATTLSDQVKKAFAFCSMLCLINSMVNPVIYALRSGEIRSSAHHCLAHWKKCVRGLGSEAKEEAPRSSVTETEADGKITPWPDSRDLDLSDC
# ASSAY_OVERVIEW: cAMP assay on hCB2R clone 3D8.3 (transfected CHO-K1 cells)
# SETUP_CONDITIONS: cAMP, hCNR2 CHO-K1 3D8.3 clone; read-out: Assay 1 IC50
ASSAY_READOUT: IC50 (nM)

COMPOUND	IC50, nM
O=[N+]([O-])c1ccccc1CSc1nnc2c(n1)[nH]c1ccccc12	129
N#Cc1ccccc1CSc1nnc2c3ccccc3n(C(=O)c3ccccc3)c2n1	38
N#Cc1ccccc1CSc1nnc2c3c(Br)cccc3n(CC3CC3)c2n1	20
N#Cc1ccccc1CSc1nnc2c3ccccc3n(S(=O)(=O)c3ccccc3)c2n1	76
N#Cc1ccccc1CSc1nnc2c3c(Br)cccc3n(C(=O)C3CC3)c2n1	16

[I] N#Cc1ccccc1CSc1nnc2c3ccccc3n(C(=O)[C@@H]3C[C@H]3c3ccccc3)c2n1 (stereo in doubt)
[II] N#Cc1ccccc1CSc1nnc2c(n1)[nH]c1cccc(C3CC3)c12
// compare measured IC50, left I , right II , return larger Output the label that corresponds to your choice.
II
(II: 231 nM, I: 72 nM)

###

# MEASUREMENT_TARGET: hCNR2 (CB2R) (Homo sapiens)
# Construct: host or cells: CHO-K1 (purchased recombinant cell line)
# Sequence (P34972 whole entry): as above
# ASSAY_OVERVIEW: DiscoveRx cAMP Hunter Express GPCR assay (hCNR2 CHO-K1 cells)
# Assay type: cell-based
# SETUP_CONDITIONS: cAMP Hunter eXpress, hCNR2 CHO-K1 cells; read-out: Assay 2 IC50
ASSAY_READOUT: IC50 (µM)

Some entries whose results are on file:
TEST_SMILES	READOUT_UNITS	IC50
O=[N+]([O-])c1ccccc1CSc1nnc2c(n1)[nH]c1cccc(Br)c12	µM	0.037
O=[N+]([O-])c1ccc(CSc2nnc3c(n2)[nH]c2ccccc23)c([N+](=O)[O-])c1	µM	0.576
N#Cc1ccccc1CSc1nnc2c3ccccc3n(C(=O)c3ccco3)c2n1	µM	0.046

[A] O=[N+]([O-])c1cccc(F)c1CSc1nnc2c(n1)[nH]c1ccccc12
[B] N#Cc1ccccc1CSc1nnc2c3ccccc3n(C(=O)C3CCCC3)c2n1
Pick one: A or B . Which one has the lower reported IC50? Output the label that corresponds to your choice.
B
(B: 0.049 µM, A: 0.539 µM)

###

# MEASUREMENT_TARGET: hCB2R (Homo sapiens)
# Construct: unnamed tag of the plasmid
# ASSAY_OVERVIEW: cAMP assay on hCB2R clone 3D8.3 (transfected CHO-K1 cells)
# SETUP_CONDITIONS: cAMP, hCNR2 CHO-K1 3D8.3 clone; read-out: Assay 1 IC50
ASSAY_READOUT: IC50 (nM)

[A] N#Cc1ccccc1CSc1nnc2c3ccccc3n(C(=O)c3ccco3)c2n1 [Example 23]
[B] N#Cc1ccccc1C[S+]([O-])c1nnc2c(n1)[nH]c1ccccc12 (stereo not drawn) [Example 32]
Pick one: A or B . Which one has the lower reported IC50? Output the label that corresponds to your choice.
A

[I] CCn1c2ccccc2c2nnc(SCc3ccccc3C#N)nc21 [Example 30]
[II] N#Cc1ccccc1CSc1nnc2c3ccccc3n(Cc3ccccc3)c2n1 [Example 3]
// compare measured IC50, left I , right II , return larger Output the label that corresponds to your choice.
I

[1] N#Cc1ccccc1CSc1nnc2c3ccccc3n(Cc3ccc(F)cc3)c2n1 [Example 37]
[2] N#Cc1ccccc1CSc1nnc2c(n1)[nH]c1cccc(Br)c12 [Example 8]
// compare measured IC50, left 1 , right 2 , return larger Output the label that corresponds to your choice.
2
(2: 228 nM, 1: 45 nM)
